Target of assay: C-IAP2 BIR3 (Homo sapiens)
Construct: 0.4 μM C-IAP-2 BIR3
Sequence (Q13489 238-349 limits assumed): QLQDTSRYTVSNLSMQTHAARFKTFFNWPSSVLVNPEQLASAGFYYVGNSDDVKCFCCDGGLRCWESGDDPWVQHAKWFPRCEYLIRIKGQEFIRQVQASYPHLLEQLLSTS
Procedure summary: Fluorescence polarization peptide binding assay, C-IAP2 BIR3
Experimental context: determined from the IC50 values (procedure of Keating et al.)
Property measured: pKi
Numbers only, as −log10 of the molar value.

For record `CN[C@@H](C)C(=O)N[C@H](C(=O)N[C@H](C(=O)Nc1cc(C)nn1-c1ccccc1)C(C)(C)SCc1ccc(OC)cc1)C1CCCCC1` the listed pKi is 6.54

For record `CN[C@@H](C)C(=O)N[C@H](C(=O)N[C@H](C(=O)Nc1sc(-c2cnccn2)nc1-c1ccccc1)C(C)(C)C)c1ccccc1` the listed pKi is 5.13

For record `CN[C@@H](C)C(=O)N[C@H](C(=O)N[C@H](C(=O)NCC(c1ccccc1)c1ccccc1)C(C)(C)O)C(C)C` the listed pKi is 5.38

For record `CN[C@@H](C)C(=O)N[C@H](C(=O)N[C@H](C(=O)Nc1snnc1-c1ccccc1)C(C)(C)OC)C1CCCCC1` the listed pKi is 7.26

I would be grateful if you could provide pKi for each of the following entries.
1. CN[C@@H](C)C(=O)N[C@H](C(=O)N[C@H](C(=O)Nc1snnc1-c1ccccc1)C(C)(C)S(C)(=O)=O)C1CCCCC1
2. CN[C@H](C)C(=O)N[C@@H](C(=O)N[C@@H](C(=O)NCC(c1ccccc1)c1ccccc1)C(C)(C)C)C1CCCCC1
3. CN[C@@H](C)C(=O)N[C@H](C(=O)N[C@H](C(=O)Nc1snnc1-c1ccccc1)C(C)(C)F)C1CCCCC1
4. CN[C@@H](C)C(=O)N[C@H](C(=O)N[C@H](C(=O)NCC(c1ccccc1)c1ccccc1)C(C)(C)SCc1ccc(OC)cc1)C1CCCCC1
5. CN[C@@H](C)C(=O)N[C@H](C(=O)N(C)[C@H](C(=O)Nc1ccccc1-c1ncccn1)C(C)C)C1CCCCC1
6. CN[C@@H](C)C(=O)N[C@H](C(=O)N(C)[C@H](C(=O)Nc1snnc1-c1ccccc1)C(C)(C)SC)C1CCCCC1
7. CN[C@@H](C)C(=O)N[C@H](C(=O)N[C@H](C(=O)NCC(c1ccccc1)c1ccccc1)C(C)(C)SC)C1CCCCC1
8. CN[C@@H](C)C(=O)N[C@H](C(=O)N(C)[C@H](C(=O)Nc1snnc1-c1ccccc1)C(C)(C)C)C1CCCCC1

[6.61, 5.79, 7.32, 5.85, 5.34, 7.22, 5.87, 6.55]

For record `CN[C@@H](C)C(=O)N[C@H](C(=O)N[C@H](C(=O)Nc1snnc1-c1ccccc1)C1(C)CCOCC1)C1CCCCC1` the listed pKi is 7.23

The origin of these recorded values is patent US20110046066A1.
